Tested on: ZIKV replicon
Experiment: ZIKV replication inhibition assay (NanoLuc replicon in Vero cells)
Details: Zika virus, Vero, 72 h, read-out: ZIKA Cell_Nanoluc, Vero cells with stable ZIKV replicon, 72 h, Nano-Glo readout
Measured property: EC50

Problem: Which EC50 value is on record for "CN(C)[C@H]1CCC[C@@H]([n+]2cc([N-]C(=O)Nc3ccnc(C(F)(F)F)c3)on2)C1" ?
Result: 1 to 20 µM

Problem: Which EC50 value is on record for "COc1ncc(-c2ccc(C[n+]3cc([N-]C(=O)Nc4cc(NC(=O)Cc5ccccc5)cc(C(F)(F)F)c4)on3)nc2)c(C)n1" ?
Result: 0.1 to 1 µM

Problem: Which EC50 value is on record for "COC(=O)c1ccc(NC(=O)[N-]c2c[n+](Cc3ccc(-c4c(C)ncnc4C)cc3)no2)cc1C(F)(F)F" ?
Result: 0.1 to 1 µM

Problem: Which EC50 value is on record for "COC(=O)c1ccc(C[n+]2cc([N-]C(=O)Nc3cc(NC(=O)Cc4ccccc4)cc(C4CC4)c3)on2)nc1" ?
Result: 1 to 20 µM

---

Would you mind telling me the reported pIC50 of each entry?
Target: Japanese encephalitis virus (JEV)-NS2B-NS3 protease (Japanese encephalitis virus, UniProt P32886, DEL1469-1493)
Experiment: JEV protease inhibition assay
Format: biochemical
pIC50: −log10 of the molar value.

Problem: Which pIC50 value is on record for N[C@H]1CC[C@H]([n+]2cc([N-]C(=O)Nc3cc(NC(=O)Cc4ccccc4)cc(C(F)(F)F)c3)on2)CC1 [Example 92] ?
Result: 4.70 to 6.00

Problem: Which pIC50 value is on record for O=C(Cc1ccccc1)Nc1cc(NC(=O)[N-]c2c[n+]([C@H]3CC[C@@H](CN4C(=O)c5ccccc5C4=O)CC3)no2)cc(C(F)(F)F)c1 [Example 60] ?
Result: 4.70 to 6.00

Problem: Which pIC50 value is on record for O=C([N-]c1c[n+]([C@H]2CC[C@@H](CNCC(F)(F)F)CC2)no1)Nc1cc(N2CCC(c3ccccc3)C2=O)cc(C(F)(F)F)c1 (stereo partly drawn) [Example 135] ?
Result: < 4.70

Problem: Which pIC50 value is on record for N[C@H]1CC[C@H](C[n+]2cc([N-]C(=O)Nc3cc(N4CC[C@H](c5ccccc5)C4=O)cc(C(F)(F)F)c3)on2)CC1 [Example 143] ?
Result: 4.70 to 6.00

Problem: Which pIC50 value is on record for CN(C)[C@H]1C[C@H]([n+]2cc([N-]C(=O)Nc3cc(NC(=O)Cc4ccccc4)cc(C(F)(F)F)c3)on2)C1 [Example 55] ?
Result: 4.70 to 6.00

Problem: Which pIC50 value is on record for N[C@H]1CC[C@@H]([n+]2cc([N-]C(=O)Nc3cc(NC(=O)Cc4ccccc4)cc(C(F)(F)F)c3)on2)CC1 [Example 91] ?
Result: 4.70 to 6.00

---

Would you mind telling me the reported EC50 of each entry?
System: ZIKV replicon
Experiment: ZIKV replication inhibition assay (NanoLuc replicon in Vero cells)
Settings: Zika virus, Vero, 72 h, read-out: ZIKA Cell_Nanoluc, Vero cells with stable ZIKV replicon, 72 h, Nano-Glo readout

Problem: Which EC50 value is on record for CN(C)[C@@H]1CCC[C@@H]([n+]2cc([N-]C(=O)Nc3cc(NC(=O)Cc4ccccc4)cc(C(F)(F)F)c3)on2)C1 [Example 173] ?
Result: 100 to 1000 nM

Problem: Which EC50 value is on record for O=C(Cc1ccccc1)Nc1cc(NC(=O)[N-]c2c[n+](CC3CC(NCc4ccc(O)cn4)C3)no2)cc(C(F)(F)F)c1 (centres unmarked) [Example 134] ?
Result: > 20000 nM

Problem: Which EC50 value is on record for O=C([N-]c1c[n+](Cc2ccccn2)no1)Nc1cc(NC(=O)c2[nH]cc3c2CCC3)cc(C(F)(F)F)c1 [Example 87] ?
Result: > 20000 nM

Problem: Which EC50 value is on record for Cc1ccccc1CC(=O)Nc1cc(NC(=O)[N-]c2c[n+]([C@@H]3CCC[C@@H](O)C3)no2)cc(C(F)(F)F)c1 [Example 215] ?
Result: < 100 nM

Problem: Which EC50 value is on record for CNC(=O)[C@H]1CCC[C@@H]([n+]2cc([N-]C(=O)Nc3cc(NC(=O)Cc4ccccc4C)cc(C(F)(F)F)c3)on2)C1 (racemic) [Example 245] ?
Result: 1000 to 20000 nM

Problem: Which EC50 value is on record for Cc1nc(N)ncc1-c1ccc(C[n+]2cc([N-]C(=O)Nc3ccnc(C(F)(F)F)c3)on2)cc1 [Example 260] ?
Result: < 100 nM

Problem: Which EC50 value is on record for CCOC(=O)CN1CCC(C[n+]2cc([N-]C(=O)Nc3cc(NC(=O)Cc4ccccc4)cc(C(F)(F)F)c3)on2)CC1 [Example 140] ?
Result: 100 to 1000 nM

Problem: Which EC50 value is on record for Cc1nsc(C)c1-c1ccc(C[n+]2cc([N-]C(=O)Nc3ccnc(C(F)(F)F)c3)on2)cc1 [Example 211] ?
Result: 1000 to 20000 nM

Problem: Which EC50 value is on record for Cc1ncnc(C)c1-c1ccc(C[n+]2cc([N-]C(=O)Nc3ccc(O)c(C(F)(F)F)c3)on2)cc1 [Example 261] ?
Result: < 100 nM

Problem: Which EC50 value is on record for CNC(=O)c1ccc(NC(=O)[N-]c2c[n+](Cc3ccc(-c4c(C)ncnc4C)cc3)no2)cc1C(F)(F)F [Example 273] ?
Result: 1000 to 20000 nM

Problem: Which EC50 value is on record for O=C([N-]c1c[n+]([C@H]2CCC[C@H](c3cncnc3)C2)no1)Nc1ccnc(C(F)(F)F)c1 [Example 219] ?
Result: 1000 to 20000 nM

Problem: Which EC50 value is on record for O=C(Cc1ccccc1)Nc1cc(NC(=O)[N-]c2c[n+](Cc3cccc(CN4C(=O)c5ccccc5C4=O)c3)no2)cc(C(F)(F)F)c1 [Example 107] ?
Result: 1000 to 20000 nM

Problem: Which EC50 value is on record for O=C(Cc1ccccc1)Nc1cc(NC(=O)[N-]c2c[n+](Cc3ccccn3)no2)cc(C2CC2)c1 [Example 89] ?
Result: 1000 to 20000 nM

Problem: Which EC50 value is on record for Cc1ccccc1CC(=O)Nc1cc(NC(=O)[N-]c2c[n+]([C@H]3CCC[C@@H](c4cncnc4)C3)no2)cc(C(F)(F)F)c1 [Example 222] ?
Result: 100 to 1000 nM

---

Would you mind telling me the reported IC50 of each entry?
Molecular target: West Nile Virus (WNV) NS2B-NS3 protease (West Nile virus, UniProt Q9Q6P4)

Problem: Which IC50 value is on record for O=C([N-]c1c[n+]([C@H]2CCC[C@H](c3cncnc3)C2)no1)Nc1ccnc(C(F)(F)F)c1 [Example 219] ?
Result: 100 to 1000 nM

Problem: Which IC50 value is on record for CNC(=O)[C@@H]1CCC[C@@H]([n+]2cc([N-]C(=O)Nc3cc(NC(=O)Cc4ccccc4C)cc(C(F)(F)F)c3)on2)C1 (racemic) [Example 252] ?
Result: 100 to 1000 nM

Problem: Which IC50 value is on record for COC(=O)[C@@H]1CCC[C@@H]([n+]2cc([N-]C(=O)Nc3cc(NC(=O)Cc4ccccc4C)cc(C(F)(F)F)c3)on2)C1 [Example 224] ?
Result: < 100 nM

Problem: Which IC50 value is on record for COC(=O)[C@H]1CCC[C@@H]([n+]2cc([N-]C(=O)Nc3cc(NC(=O)Cc4ccccc4C)cc(C(F)(F)F)c3)on2)C1 [Example 223] ?
Result: < 100 nM

Problem: Which IC50 value is on record for CN(C)[C@H]1CCC[C@@H]([n+]2cc([N-]C(=O)Nc3cc(NC(=O)Cc4ccccc4)cc(C(F)(F)F)c3)on2)C1 [Example 174] ?
Result: 100 to 1000 nM

Problem: Which IC50 value is on record for C[C@@H](C(=O)Nc1cc(NC(=O)[N-]c2c[n+]([C@H]3CC[C@H](CN(C)C)CC3)no2)cc(C(F)(F)F)c1)c1ccccc1 [Example 175] ?
Result: < 100 nM

Problem: Which IC50 value is on record for CN(C)C[C@H]1CC[C@H]([n+]2cc([N-]C(=O)Nc3cc(N4CCC(c5ccccc5)C4=O)cc(C(F)(F)F)c3)on2)CC1 (stereo partly shown) [Example 148] ?
Result: 100 to 1000 nM

Problem: Which IC50 value is on record for CNC(=O)[C@@H]1CCC[C@@H]([n+]2cc([N-]C(=O)Nc3cc(NC(=O)Cc4ccccc4C)cc(C(F)(F)F)c3)on2)C1 [Example 231] ?
Result: < 100 nM

Problem: Which IC50 value is on record for Cc1ccccc1CC(=O)Nc1cc(NC(=O)[N-]c2c[n+]([C@@H]3CCC[C@H](CN(C)C)C3)no2)cc(C(F)(F)F)c1 (stereo in doubt) [Example 247] ?
Result: 100 to 1000 nM

Problem: Which IC50 value is on record for CN(C)C[C@H]1CC[C@H]([n+]2cc([N-]C(=O)Nc3cc(NC(=O)Cc4ccccc4)cc(C(F)(F)F)c3)on2)CC1 [Example 147] ?
Result: < 100 nM

Problem: Which IC50 value is on record for Cc1ccccc1CC(=O)Nc1cc(NC(=O)[N-]c2c[n+]([C@H]3CCC[C@@H](c4cncnc4)C3)no2)cc(C(F)(F)F)c1 [Example 222] ?
Result: < 100 nM

Problem: Which IC50 value is on record for CC(C(=O)Nc1cc(NC(=O)[N-]c2c[n+]([C@H]3CC[C@H](CN(C)C)CC3)no2)cc(C(F)(F)F)c1)c1ccccc1 (stereo partly shown) [Example 164] ?
Result: < 100 nM

Problem: Which IC50 value is on record for Cc1ccccc1CC(=O)Nc1cc(NC(=O)[N-]c2c[n+]([C@@H]3CCCC[C@@H]3N(C)C)no2)cc(C(F)(F)F)c1 (racemic) [Example 244] ?
Result: 100 to 1000 nM
